B1: tRNA (parent)
chain: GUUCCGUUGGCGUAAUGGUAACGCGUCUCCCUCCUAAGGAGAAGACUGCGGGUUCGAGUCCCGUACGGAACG

Variants of: B1
TEST_METHOD_NOTES: yeast fitness relative to wild type (ratio to wild type); higher = fitter; tRNA-Arg(CCU), competitive growth, 37 C, YPD
This sample holds only a part of the variants without activity.
OBSERVABLE: yeast fitness

Example entries begin here.
I would be grateful if you could share the reported yeast fitness for C5G C66A A69G A70C .
≤ 0.5

Now the variant A14C G18A G67U
≤ 0.5

Now the variant A20G C27G U47G C62U A65U
≤ 0.5

***
I would be grateful if you could share the reported yeast fitness for A15G C24G A37G C49A .
≤ 0.5
